For each record, write down the corresponding EC50 hC3 cleavage.
Assay System: plasma purified human complement protein C3 (human) (UniProt P01024)
Sequence (P01024 23-667, chain 1 of 2): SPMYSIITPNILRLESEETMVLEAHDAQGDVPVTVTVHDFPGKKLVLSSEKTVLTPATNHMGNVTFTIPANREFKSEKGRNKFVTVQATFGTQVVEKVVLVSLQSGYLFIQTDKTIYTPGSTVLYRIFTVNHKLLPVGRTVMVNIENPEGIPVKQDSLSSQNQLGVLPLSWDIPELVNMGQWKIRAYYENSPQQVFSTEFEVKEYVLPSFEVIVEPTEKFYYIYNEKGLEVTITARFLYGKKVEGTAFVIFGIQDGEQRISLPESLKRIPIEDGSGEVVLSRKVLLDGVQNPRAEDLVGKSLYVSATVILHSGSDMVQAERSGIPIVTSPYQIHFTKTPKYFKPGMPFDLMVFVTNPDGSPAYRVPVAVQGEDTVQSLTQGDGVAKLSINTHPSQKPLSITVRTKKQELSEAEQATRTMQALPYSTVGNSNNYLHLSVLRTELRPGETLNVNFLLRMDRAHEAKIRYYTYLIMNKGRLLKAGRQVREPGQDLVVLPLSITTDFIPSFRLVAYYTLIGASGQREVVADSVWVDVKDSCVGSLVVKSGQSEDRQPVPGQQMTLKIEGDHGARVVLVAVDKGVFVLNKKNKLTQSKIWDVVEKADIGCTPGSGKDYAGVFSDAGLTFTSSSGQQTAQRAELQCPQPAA
Sequence (P01024 672-1663, chain 2 of 2): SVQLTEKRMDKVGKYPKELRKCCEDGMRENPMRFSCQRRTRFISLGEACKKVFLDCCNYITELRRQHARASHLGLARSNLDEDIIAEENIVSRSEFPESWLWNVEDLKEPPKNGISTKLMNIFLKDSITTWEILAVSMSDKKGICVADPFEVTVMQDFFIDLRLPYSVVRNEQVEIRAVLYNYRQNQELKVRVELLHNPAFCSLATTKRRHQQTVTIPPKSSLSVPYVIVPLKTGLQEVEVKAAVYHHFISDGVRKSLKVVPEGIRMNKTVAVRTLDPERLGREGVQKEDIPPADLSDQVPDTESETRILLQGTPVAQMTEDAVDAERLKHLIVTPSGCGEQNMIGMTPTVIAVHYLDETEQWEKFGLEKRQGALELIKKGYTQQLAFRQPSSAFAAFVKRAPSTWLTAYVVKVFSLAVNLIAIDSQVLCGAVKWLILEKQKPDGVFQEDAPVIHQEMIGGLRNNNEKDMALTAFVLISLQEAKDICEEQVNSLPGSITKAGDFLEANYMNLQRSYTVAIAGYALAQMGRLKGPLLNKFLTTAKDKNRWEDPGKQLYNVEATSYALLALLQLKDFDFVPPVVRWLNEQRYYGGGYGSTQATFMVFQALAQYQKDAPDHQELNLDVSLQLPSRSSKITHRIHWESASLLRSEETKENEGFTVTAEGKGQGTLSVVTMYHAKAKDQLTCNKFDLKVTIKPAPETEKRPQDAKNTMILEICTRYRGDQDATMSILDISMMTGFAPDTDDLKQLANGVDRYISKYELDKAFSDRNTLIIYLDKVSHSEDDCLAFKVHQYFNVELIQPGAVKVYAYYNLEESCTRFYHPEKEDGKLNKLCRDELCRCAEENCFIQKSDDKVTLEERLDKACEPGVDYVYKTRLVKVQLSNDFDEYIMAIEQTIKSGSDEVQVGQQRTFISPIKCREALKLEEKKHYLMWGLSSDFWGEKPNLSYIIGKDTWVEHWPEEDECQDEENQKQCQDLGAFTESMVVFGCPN
Measurement Description: cell-based or functional assay
Give bare numbers, in nM.

Binder	Metric Name	Result
MTSP-1 protease domain Q38H/I41S/D60bT/F60eG/Y60gW/D96V/F97N/T98G/F99L/C122S/G151N/Q175L/Q192D (enzyme) VVGGTDADEGEWPWQVSLHALGHGHSCGASLISPNWLVSAAHCYIDTRGGRWSDPTQWTAFLGLHDQSQRSAPGVQERRLKRIISHPFFNVNGLDYDIALLELEKPAEYSSMVRPISLPDASHVFPAGKAIWVTGWGHTQYGGTNALILQKGEIRVINQTTCENLLPQLITPRMMCVGFLSGGVDSCDGDSGGPLSSVEADGRIFQAGVVSWGDGCAQRNKPGVYTRLPLFRDWIKENTGV	EC50 hC3 cleavage	4.47
MTSP-1 protease domain Q38Y/I41S/D60bT/Y60gW/D96M/F97N/T98G/F99L/C122S/G151N/Q175L/Q192D (enzyme) VVGGTDADEGEWPWQVSLHALGYGHSCGASLISPNWLVSAAHCYIDTRGFRWSDPTQWTAFLGLHDQSQRSAPGVQERRLKRIISHPFFNMNGLDYDIALLELEKPAEYSSMVRPISLPDASHVFPAGKAIWVTGWGHTQYGGTNALILQKGEIRVINQTTCENLLPQLITPRMMCVGFLSGGVDSCDGDSGGPLSSVEADGRIFQAGVVSWGDGCAQRNKPGVYTRLPLFRDWIKENTGV	EC50 hC3 cleavage	3.08

Recorded EC50 hC3 cleavage of MTSP-1 protease domain Q38H/I41S/D60bT/F60eS/Y60gW/ins97aV/T98P/F99L/C122S/G151H/Q175L/Q192E (enzyme) VVGGTDADEGEWPWQVSLHALGHGHSCGASLISPNWLVSAAHCYIDTRGSRWSDPTQWTAFLGLHDQSQRSAPGVQERRLKRIISHPFFNDFVPLDYDIALLELEKPAEYSSMVRPISLPDASHVFPAGKAIWVTGWGHTQYGGTHALILQKGEIRVINQTTCENLLPQLITPRMMCVGFLSGGVDSCEGDSGGPLSSVEADGRIFQAGVVSWGDGCAQRNKPGVYTRLPLFRDWIKENTGV , please.
3.19
